# measuredOn: HLA-A*6801 (purified HLA class I molecule) (human)
# measurementNotes: inhibition of 125I probe peptide binding to purified HLA; ratio to standard peptide
reportedMetric: relative binding ratio

{"columns": ["binder", "result"],
 "data": [
  ["DLSYMPIWK (also called Her2/neu.607 (9-mer)) [HER2/neu peptide, position 607, 9 amino acids]", "0.031 ratio (IC50 standard / IC50 test)"],
  ["GTQRCEKCSK (also called Her2/neu.327 (10-mer)) [HER2/neu peptide, position 327, 10 amino acids]", "0.01 ratio (IC50 standard / IC50 test)"],
  ["CVNCSQFLR (also called Her2/neu.528) [HER2/neu peptide, position 528, 9 amino acids]", "0.44 ratio (IC50 standard / IC50 test)"],
  ["CVARCPSGVK (also called Her2/neu.596 (10-mer)) [HER2/neu peptide, position 596, 10 amino acids]", "0.0093 ratio (IC50 standard / IC50 test)"]
]}

# evaluate next
**Q:** Report relative binding ratio for GSGAFGTVYK (also called Her2/neu.727 (10-mer)) [HER2/neu peptide, position 727, 10 amino acids] please.
**A:** 0.0012 ratio (IC50 standard / IC50 test)
